- Tested on: HeLa cervical cancer cell line
- protocol_details: In-vitro cell survival assay (Alamar blue), HeLa
- Type: cell-based
- run_parameters: Homo sapiens, 24 h, one day after compound addition
quantity_kind: EC50

Known results for molecules:
O=C1NN=C(c2ccccc2)/C1=C/Nc1ccccc1 [drawing 368] | > 100 µM
O=C(COc1ccccc1)NCC(c1cccs1)S(=O)(=O)c1ccc(Cl)cc1 (stereo not drawn) [drawing 427] | > 100 µM

Attention now shifts to the item below.
Requested read-out: EC50. Entry: CCOC(=O)c1ccc(NC(=O)CCn2ccc3ccccc32)cc1 [drawing 473]
> 100 µM

* * *

- target_system: ROS (Homo sapiens)
- Sequence (P08922 28-2347): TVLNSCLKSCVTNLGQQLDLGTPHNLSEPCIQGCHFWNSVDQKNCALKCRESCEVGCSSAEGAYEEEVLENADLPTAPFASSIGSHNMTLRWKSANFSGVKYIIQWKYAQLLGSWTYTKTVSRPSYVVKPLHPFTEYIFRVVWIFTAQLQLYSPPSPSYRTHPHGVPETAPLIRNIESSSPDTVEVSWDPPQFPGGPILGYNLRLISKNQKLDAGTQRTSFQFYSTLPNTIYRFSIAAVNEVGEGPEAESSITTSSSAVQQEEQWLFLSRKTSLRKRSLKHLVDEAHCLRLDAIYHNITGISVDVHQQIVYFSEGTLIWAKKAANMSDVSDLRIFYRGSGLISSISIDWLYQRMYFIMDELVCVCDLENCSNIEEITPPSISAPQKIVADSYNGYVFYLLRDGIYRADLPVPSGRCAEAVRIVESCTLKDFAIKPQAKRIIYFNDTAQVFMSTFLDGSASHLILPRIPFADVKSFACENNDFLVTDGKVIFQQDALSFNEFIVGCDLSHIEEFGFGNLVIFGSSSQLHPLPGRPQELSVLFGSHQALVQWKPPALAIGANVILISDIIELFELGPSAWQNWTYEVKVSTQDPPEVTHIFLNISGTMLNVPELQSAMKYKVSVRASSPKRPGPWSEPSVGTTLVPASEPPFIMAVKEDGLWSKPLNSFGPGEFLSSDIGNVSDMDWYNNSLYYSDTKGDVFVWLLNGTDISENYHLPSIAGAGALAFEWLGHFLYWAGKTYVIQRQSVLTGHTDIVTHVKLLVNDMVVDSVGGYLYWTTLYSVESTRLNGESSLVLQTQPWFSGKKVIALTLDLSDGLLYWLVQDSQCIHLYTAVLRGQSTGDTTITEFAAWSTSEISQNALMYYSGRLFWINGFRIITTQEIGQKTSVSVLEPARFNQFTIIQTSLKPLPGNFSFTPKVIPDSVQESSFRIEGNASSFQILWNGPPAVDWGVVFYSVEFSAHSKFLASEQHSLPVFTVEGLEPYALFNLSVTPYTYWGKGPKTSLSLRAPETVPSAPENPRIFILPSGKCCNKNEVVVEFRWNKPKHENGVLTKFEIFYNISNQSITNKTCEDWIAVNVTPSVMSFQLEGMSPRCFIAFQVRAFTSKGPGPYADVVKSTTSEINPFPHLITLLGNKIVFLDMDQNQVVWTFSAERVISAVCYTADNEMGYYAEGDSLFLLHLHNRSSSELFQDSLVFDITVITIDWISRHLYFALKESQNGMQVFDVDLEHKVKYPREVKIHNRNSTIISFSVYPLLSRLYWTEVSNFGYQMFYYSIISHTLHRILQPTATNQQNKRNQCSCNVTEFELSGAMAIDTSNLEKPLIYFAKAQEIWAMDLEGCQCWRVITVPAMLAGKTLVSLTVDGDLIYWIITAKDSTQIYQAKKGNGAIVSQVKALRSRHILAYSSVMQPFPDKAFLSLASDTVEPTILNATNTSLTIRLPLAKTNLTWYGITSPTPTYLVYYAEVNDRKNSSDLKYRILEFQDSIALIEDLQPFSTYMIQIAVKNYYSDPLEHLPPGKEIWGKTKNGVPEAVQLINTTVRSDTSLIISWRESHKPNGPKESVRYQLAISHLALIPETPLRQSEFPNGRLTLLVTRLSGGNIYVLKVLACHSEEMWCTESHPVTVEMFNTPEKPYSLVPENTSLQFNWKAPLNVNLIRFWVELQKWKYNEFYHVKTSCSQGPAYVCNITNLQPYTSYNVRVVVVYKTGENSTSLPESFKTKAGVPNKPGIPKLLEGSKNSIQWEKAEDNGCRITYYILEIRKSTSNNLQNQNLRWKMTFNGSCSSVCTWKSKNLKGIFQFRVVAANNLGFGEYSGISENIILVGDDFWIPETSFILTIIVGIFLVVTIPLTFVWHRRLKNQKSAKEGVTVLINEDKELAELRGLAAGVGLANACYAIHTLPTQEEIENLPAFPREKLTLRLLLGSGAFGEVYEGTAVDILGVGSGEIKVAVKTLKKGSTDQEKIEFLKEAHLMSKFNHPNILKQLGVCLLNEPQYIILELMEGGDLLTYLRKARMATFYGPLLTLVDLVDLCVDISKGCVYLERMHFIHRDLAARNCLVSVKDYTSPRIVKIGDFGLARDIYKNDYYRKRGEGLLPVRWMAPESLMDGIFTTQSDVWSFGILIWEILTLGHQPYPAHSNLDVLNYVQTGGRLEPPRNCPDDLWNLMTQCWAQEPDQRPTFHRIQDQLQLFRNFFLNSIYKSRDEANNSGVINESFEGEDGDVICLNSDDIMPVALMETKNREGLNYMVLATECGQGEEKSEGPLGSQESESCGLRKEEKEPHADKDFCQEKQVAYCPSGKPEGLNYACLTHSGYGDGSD
- protocol_details: In vitro ROS enzymatic reaction assay (HTRF, Cisbio)
- Format: biochemical
- Design: ROS or EGFR enzyme, 0.008 ng/ul
quantity_kind: log10 of IC50 (log10 of the value in µM)
Please interpret these as log10 of IC50 where IC50 is in µM.

Known results for compounds:
O=C(c1cccc(Nc2ncc(Cl)c(Nc3ccc4ncsc4c3)n2)c1)N1CCCCC1 [drawing 328] | -0.62
O=C(NCC(c1cccs1)S(=O)(=O)c1ccc(F)cc1)c1ccccc1 (centres unmarked) [drawing 297] | -0.32
CCC(C)(C)NC(=O)c1cccc(Nc2nccc(Nc3ccc4ncsc4c3)n2)c1 [drawing 243] | -0.21

Attention now shifts to the item below.
Requested read-out: log10 of IC50. Entry: O=C(NCc1cccs1)c1cccc(Nc2nccc(Nc3ccc4ncsc4c3)n2)c1 [drawing 273]
-0.36

The origin of these recorded values is patent US9963452B2.
